biological target: Histone-lysine N-methyltransferase EHMT2 (Homo sapiens) (UniProt Q96KQ7); assay: qHTS Assay for Inhibitors of Histone Lysine Methyltransferase G9a; settings: G9a H3K9 monomethylation, AlphaScreen, 2 h; series mostly up to 59 µM; also: nearly all actives have a fitted effect of over 75% in size
Sequence (Q96KQ7 913-1193 limits assumed): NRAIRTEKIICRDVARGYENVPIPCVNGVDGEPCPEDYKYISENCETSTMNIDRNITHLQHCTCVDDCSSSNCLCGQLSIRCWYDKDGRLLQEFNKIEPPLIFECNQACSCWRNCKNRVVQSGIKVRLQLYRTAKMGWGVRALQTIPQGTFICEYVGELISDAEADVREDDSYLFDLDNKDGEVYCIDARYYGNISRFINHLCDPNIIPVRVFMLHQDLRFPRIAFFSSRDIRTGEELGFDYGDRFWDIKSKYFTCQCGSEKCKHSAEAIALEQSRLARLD
The campaign covered roughly 350,000 compounds. About 31,000 (8.9%) were called active. About 15% were inconclusive and are not listed. Calls follow the shape of the dose curve; as a rule, active = well fitted inhibition curve with a large enough effect; inconclusive = small, poorly fitted or top-dose-only effect; inactive = no such curve, though single readings can be large or run the other way. For the sample, actives were picked, then their nearest neighbours and some compounds at random.
Field 'call' accepts active, inactive

How did this test come out for "CCn1cc(C(=O)N2CCN(c3cc(Cl)ccc3C)CC2)c(=O)c2cc(S(=O)(=O)N3CCCC3)ccc21" ?
inactive

Outcome? "Cc1cccc(NC(=O)CSc2nc3c(oc4ccccc43)c(=O)n2-c2ccc(F)cc2)c1"
inactive

Dear all, I need the recorded test outcome for CCC1(C)Cc2c(sc3nc(SC)nc(N)c23)CO1 (stereo not given) , thank you.
inactive

Assay outcome for "COc1cc(CN(C(=O)c2ccccc2Br)c2ccccn2)cc(OC)c1OC" : what was it?
inactive

Entry "Cc1ccc(Cl)c(OCC(=O)N2CCc3ccccc3C2)c1" : call = ?
inactive

Write down the call the test reported for this compound. Item: CC(=O)c1ccc(S(=O)(=O)NC2CC(=O)N(c3ccc4c(c3)OCCO4)C2)cc1 (stereo not given)
inactive

Could you please tell me the result logged for "COc1cccc(C(=O)Nc2ccc(-c3cc(C(F)(F)F)nn3-c3ccccc3)cc2)c1" in this assay?
inactive

For "CCOc1ccc(S(=O)(=O)c2cn(Cc3ccc(OC)cc3)c3ccc(F)cc3c2=O)cc1" , which call appears in the assay record?
inactive

Hey, what did the test say about "CC(C)c1ccc(NC(=O)Cn2c3ncccc3c(=O)n2-c2ccccc2)cc1" ?
inactive

Query: recorded result category for "Cc1ccc2[nH]c3c(=O)n(CC(=O)NC(C)C)ncc3c2c1" in this test
inactive

Name the outcome recorded for CC(CNC(=O)c1nnc(Cc2cccc(F)c2)o1)c1ccccc1 (stereo not given) in the assay.
inactive

Name the outcome recorded for "O=C(N/N=C\c1ccc(Br)cc1)c1ccc(Cn2cccn2)o1" in the assay.
inactive

Field: outcome | Entry: CCC1(C)Cc2c(sc3nc(SC)[nH]c(=O)c23)CO1 (stereo not given)
active

For "Cc1ccc(Cl)cc1N1CCN(C(=O)c2cccn3c(=O)c4cc(Cl)ccc4nc23)CC1" , what call appears in the results of this test?
inactive

What is the recorded call for this compound in the test? "O=C(N/N=C/c1ccc2c(c1)OCO2)c1ccc(Cn2cc([N+](=O)[O-])cn2)o1"
inactive

For "COc1ccccc1N1CCN(C(=O)C2CCN(S(=O)(=O)c3c(C)noc3/C=C/c3ccc(C)cc3)CC2)CC1" , which call appears in the assay record?
inactive

Please let me know the test result on file for Cc1ccc2cc(C#N)c(SCC(=O)NCC3CCCO3)nc2c1C (stereo not given) .
inactive

What did this assay record as the result for "CCOc1ccc(CNC(=O)CCc2c(C)nn(-c3ccc(N4CCCCC4)nn3)c2C)cc1" ?
inactive

Check the results log: what was the call for "Cc1ccc(Cl)cc1N1CCN(C(=O)c2cccc3c(=O)c(C)c(-c4ccccc4)oc23)CC1" ?
active

Which outcome was entered for the compound COc1ccc(S(=O)(=O)N2CCCCC2)cc1NC(=O)C1CC(=O)N(c2ccc3c(c2)OCCO3)C1 (stereo not given) in this test?
inactive

----------
target: Histone-lysine N-methyltransferase EHMT2 (Homo sapiens) (UniProt Q96KQ7); assay: qHTS Assay for Inhibitors of Histone Lysine Methyltransferase G9a; details: G9a H3K9 monomethylation, AlphaScreen, 2 h; series mostly up to 59 µM; also: nearly all actives have a fitted effect of over 75% in size
Among all 350,000 compounds or so, about 31,000 (8.9%) were called active. Roughly 15% stayed inconclusive and do not appear here. The call rests on the fitted dose curve; in most records, active means well fitted inhibition curve with a large enough effect; inconclusive means small, poorly fitted or top-dose-only effect; inactive means no such curve, though single readings can be large or run the other way. This excerpt belongs to a sample that is enriched for actives.
Hi there, use one of these labels in your reply, thanks! active, inactive

Please let me know the test result on file for "COc1cc(CNC(=O)c2cc3n(n2)CCCN(Cc2cccc(F)c2)C3=O)cc(OC)c1OC" .
inactive

What was the test verdict on "CC(=O)c1ccc(NC(=O)c2nc3nc(C)cc(C(F)F)n3n2)cc1" ?
inactive

Outcome logged for "CCCS(=O)(=O)N1CCC(n2c(C(F)(F)F)nc3cccnc32)CC1" in this assay:
inactive

How was "COc1ccc(Cl)cc1C(=O)NNC(=S)NC1CCCC1" classified in this test?
inactive

Hi team, can someone confirm the assay call for CCC(C)c1ccc(NC(=S)N2CCCC2)cc1 (stereo unspecified) ?
inactive

Look up the recorded call for "Cc1onc(-c2ccccc2)c1C(=O)NNC(=S)NC(=O)c1ccc(F)cc1" in this test.
active

What classification did "CCOC(=O)C1CCN(C(=O)Nc2cccc(OC)c2)CC1" end up with in this test?
inactive

Just curious, what result did "COc1ccc(C(=O)NC(=S)NC2CCCCC2)cc1" get here?
active

Hi, sorry to bother you, what did the test record for "Cn1nnnc1SCC(=O)NNC(=O)c1ccc(Br)cc1" ?
inactive

Please indicate how the test categorized "CCOC(=O)c1[nH]c2ccc(OC)cc2c1NC(=O)N1CCOCC1" .
active

Hi, do you know how "COc1cc(C(=S)NC2CCCCC2)ccc1O" came out in this test?
active

----------
biological target: Histone-lysine N-methyltransferase EHMT2 (Homo sapiens); assay: qHTS Assay for Inhibitors of Histone Lysine Methyltransferase G9a; conditions: G9a H3K9 monomethylation, AlphaScreen, 2 h; series mostly up to 59 µM; also: nearly all actives have a fitted effect of over 75% in size
The whole screen tested about 350,000 compounds, of which about 31,000 (8.9%) were called active. About 15% were inconclusive and are not listed. The entries come from a sample that favours actives as a whole.
readout-label: outcome

Consider the reported outcome for these compounds:
{"smiles-data": "CCc1ccccc1OCC(=O)Nc1ccc2c(c1)OCCO2", "system-under-test": "Histone-lysine N-methyltransferase EHMT2 (Homo sapiens)", "outcome": "inactive"}
{"smiles-data": "CCN(CCO)C(=S)Nc1cc(C(=O)OC)ccc1C(=O)OC", "system-under-test": "Histone-lysine N-methyltransferase EHMT2 (Homo sapiens)", "outcome": "inactive"}
{"smiles-data": "CCC(=O)N1CCc2cc(Br)cc(S(=O)(=O)CCC(=O)N3CCN(c4ccc(F)cc4)CC3)c21", "system-under-test": "Histone-lysine N-methyltransferase EHMT2 (Homo sapiens)", "outcome": "inactive"}
{"smiles-data": "CC(=O)c1nn(-c2ccc(OC(F)(F)F)cc2)nc1Nc1ccccc1", "system-under-test": "Histone-lysine N-methyltransferase EHMT2 (Homo sapiens)", "outcome": "inactive"}
{"smiles-data": "CN(NS(=O)(=O)c1cccs1)c1ncc(C(F)(F)F)cc1Cl", "system-under-test": "Histone-lysine N-methyltransferase EHMT2 (Homo sapiens)", "outcome": "inactive"}

Lab book: outcome of "CCn1c(CNC(=O)C23CC4CC(CC(C4)C2)C3)nnc1SCC(=O)Nc1ccc(OC)cc1" noted as inactive

----------
biological target: Histone-lysine N-methyltransferase EHMT2 (Homo sapiens) (UniProt Q96KQ7); assay: qHTS Assay for Inhibitors of Histone Lysine Methyltransferase G9a; conditions: G9a H3K9 monomethylation, AlphaScreen, 2 h; series mostly up to 59 µM; also: nearly all actives have a fitted effect of over 75% in size; also: potency is read from the fitted curve at half-maximal effect
The whole screen tested about 350,000 compounds, of which about 31,000 (8.9%) were called active. Roughly 15% stayed inconclusive and do not appear here. For the sample, actives were picked, then their nearest neighbours and some compounds at random.
readout-label: Potency

{"compound": "O=C(NCc1ccccc1)C(c1cccnc1)N(C(=O)c1csnn1)c1ccc(F)cc1 (configuration not stated)", "val": "inactive"}
{"compound": "O=C(CSC(=S)N1CCOCC1)c1ccccc1", "val": "7.08 µM (active)"}
{"compound": "CC(C)(C)SCCNC(=O)c1cccc([N+](=O)[O-])c1", "val": "inactive"}
{"compound": "CN(C)c1nc(NN)nc(Nc2ccc(F)cc2)n1", "val": "inactive"}
{"compound": "CCCCCC(=O)Nc1ccc(C(=O)N/N=C/c2ccc([N+](=O)[O-])cc2)cc1", "val": "inactive"}

// "O=C(c1cccnc1NCc1ccccc1)N1CCOCC1" : Potency value = inactive

Data point: "CCOc1ccccc1NC(=O)c1ccc2c(c1)CCN2S(=O)(=O)c1ccc(C)cc1" ; Potency = inactive

Entry "COC(=O)c1c(NC(=O)COc2ccc(Cl)cc2Cl)sc2c1CC(C)(C)NC2(C)C" , Potency reported as 31.6 µM (active)

Per the records, this compound ( "O=C(NC(=O)N1CCOCC1)c1ccccc1" ) has Potency equal to inactive

Briefly, Potency measured for "Cc1ccc(CCNC(=O)C2CCN(c3nnc(-n4cccc4CNc4ccc(C)cc4)s3)CC2)cc1" : inactive

----------
molecular target: Histone-lysine N-methyltransferase EHMT2 (Homo sapiens) (UniProt Q96KQ7); experiment: qHTS Assay for Inhibitors of Histone Lysine Methyltransferase G9a; conditions: G9a H3K9 monomethylation, AlphaScreen, 2 h; series mostly up to 59 µM; also: nearly all actives have a fitted effect of over 75% in size
In all, about 350,000 compounds went through this assay and about 31,000 (8.9%) were called active. Inconclusive results (about 15%) are left out. The call rests on the fitted dose curve; in most records, active means well fitted inhibition curve with a large enough effect; inconclusive means small, poorly fitted or top-dose-only effect; inactive means no such curve, though single readings can be large or run the other way. This excerpt belongs to a sample that is enriched for actives.
Form entry, call: pick from active, inactive

Called result for "COc1cc(C(=O)Nc2ccc(OCc3cc(=O)n4cc(C)sc4n3)cc2)cc(OC)c1OC"
inactive

Recorded test outcome, item "C[C@H]1[C@H]2c3nc4ccccc4n3C[C@H]1ON2C1CCCCC1"
inactive

Given "O=C(CSc1nc(-c2ccco2)cc(C(F)(F)F)n1)NCc1cccs1" , state the outcome it received in this test.
inactive

Fill in: this test's call for "Cc1cccc(NC(=O)CSc2nc(-c3ccco3)cc(C(F)(F)F)n2)c1C" is ___
inactive

Please indicate how the test categorized "O=C(c1cccs1)c1cn(CCOc2ccc(Cl)cc2)c2ccccc12" .
inactive

Hello, I am checking results. What call was entered for "CCOC(=O)C1CCN(c2nc3c(S(=O)(=O)c4ccc(CC)cc4)nnn3c3ccc(Cl)cc23)CC1" ?
inactive

Assay outcome for "O=C(c1cccs1)N(C(=O)c1cccs1)c1ccccn1" : what was it?
inactive

Name the outcome recorded for "CCc1nn(CC(=O)N2CCN(c3ccc(Cl)cc3)CC2)c(=O)c2cc3occc3n12" in the assay.
inactive

Tell me the recorded outcome of this test for "CCS(=O)(=O)c1ncc(N(Cc2ccc(F)cc2)Cc2ccco2)c(C(=O)Nc2cc(C)ccc2C)n1" .
inactive

What classification did "COc1ccccc1NC(=O)c1cc(C2CC2)nc2c1c(C)nn2-c1ccc(C)cc1" end up with in this test?
inactive

What did this assay record as the result for "CCOc1ccc(CNC(=O)c2ccc3nc(CC)c(CC)nc3c2)cc1OC" ?
inactive

Hello, I am checking results. What call was entered for "O=C(NCCc1csc(-c2ccc(C(F)(F)F)cc2)n1)C(=O)Nc1ccc(F)c(Cl)c1" ?
inactive

Hi, do you know how "O=C(O)c1ccccc1C(=O)NC1=NN(c2ccccc2)CC1" came out in this test?
active

For O=C(C1=C(O)C(=O)N(CCOCCO)C1c1ccccn1)c1cccs1 (configuration not stated) , what call appears in the results of this test?
active

What is the recorded call for this molecule in the test? "Clc1ccc(CN2CCCCCC2)cc1Cl"
active

// param item: "O=C(CSc1oc(-c2ccco2)nc1S(=O)(=O)c1ccc(Cl)cc1)c1ccccc1" ; yields the recorded call
inactive

How did this test come out for "Cc1ccccc1NC(=O)CN1C(=O)C(C)(C)c2ccccc21" ?
inactive

Each molecule tested received a call. Report the one for "CCC(=O)Nc1ccc(-c2ccc(N3CCCCC3)nn2)cc1" .
inactive

What is the recorded call for this molecule in the test? "O=C(CSc1nnc(-c2ccncc2)n1C1CCCCC1)Nc1ccccc1"
inactive

What outcome does the record of this test show for "Nc1c(C(=O)O)cnn1-c1ccccc1" ?
inactive

Per the records of this test, what outcome belongs to CC1CCCCC1NC(=O)CSc1nnc(-c2ccncc2)n1CCCN(C)C (configuration not stated) ?
active

Short answer needed: outcome of this test for "CCN(CC)CCNC(=O)Cn1ncc2c3ccccc3n(Cc3ccccc3C)c2c1=O" ?
inactive
